molecular target: dopamine transporter (Rattus norvegicus); construct: Corpus striatum from male Wistar rats (150-200 g) is homogenized; from tissue; host or cells: corpus striatum of male Wistar rats; assay: In vitro inhibition of ^3 H-WIN 35428 binding (corpus striatum); design: species or system rat (male Wistar)
Sequence (P23977 whole entry): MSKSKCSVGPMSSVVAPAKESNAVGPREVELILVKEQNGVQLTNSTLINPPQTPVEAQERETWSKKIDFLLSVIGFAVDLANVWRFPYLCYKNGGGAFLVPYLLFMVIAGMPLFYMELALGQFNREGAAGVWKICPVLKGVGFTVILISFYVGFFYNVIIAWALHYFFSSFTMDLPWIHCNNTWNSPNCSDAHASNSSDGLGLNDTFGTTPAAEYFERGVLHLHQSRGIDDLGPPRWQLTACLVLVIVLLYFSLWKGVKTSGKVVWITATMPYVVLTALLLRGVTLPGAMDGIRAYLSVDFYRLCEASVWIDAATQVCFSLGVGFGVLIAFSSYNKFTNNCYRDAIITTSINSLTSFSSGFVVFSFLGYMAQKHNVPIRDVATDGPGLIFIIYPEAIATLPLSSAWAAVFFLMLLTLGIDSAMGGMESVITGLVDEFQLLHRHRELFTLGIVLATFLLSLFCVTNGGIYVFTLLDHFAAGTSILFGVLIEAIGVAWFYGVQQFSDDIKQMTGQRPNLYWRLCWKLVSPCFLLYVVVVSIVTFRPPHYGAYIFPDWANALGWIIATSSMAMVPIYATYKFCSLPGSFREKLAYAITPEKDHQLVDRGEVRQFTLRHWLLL
valueType: pIC50
// scale note: pIC50 = -log10(conc_M); give the bare number

Record "CN1[C@H]2CC[C@@H]1[C@H](C=NO)[C@@H](c1ccc(Cl)c(Cl)c1)C2" . Reported pIC50: 8.47

Record "CN1[C@H]2CC[C@@H]1[C@H](C=NO)[C@@H](c1ccc(Cl)cc1)C2" . Reported pIC50: 7.89

Record "CN1[C@H]2CC[C@@H]1[C@@H](C=NO)[C@@H](c1ccc(Cl)c(Cl)c1)C2" . Reported pIC50: 8.70
